tested_on: human Src enzyme (Homo sapiens, UniProt P12931)
Construct: purchased Carna Biosciences, Inc. 08-173
Sequence (P12931 whole entry): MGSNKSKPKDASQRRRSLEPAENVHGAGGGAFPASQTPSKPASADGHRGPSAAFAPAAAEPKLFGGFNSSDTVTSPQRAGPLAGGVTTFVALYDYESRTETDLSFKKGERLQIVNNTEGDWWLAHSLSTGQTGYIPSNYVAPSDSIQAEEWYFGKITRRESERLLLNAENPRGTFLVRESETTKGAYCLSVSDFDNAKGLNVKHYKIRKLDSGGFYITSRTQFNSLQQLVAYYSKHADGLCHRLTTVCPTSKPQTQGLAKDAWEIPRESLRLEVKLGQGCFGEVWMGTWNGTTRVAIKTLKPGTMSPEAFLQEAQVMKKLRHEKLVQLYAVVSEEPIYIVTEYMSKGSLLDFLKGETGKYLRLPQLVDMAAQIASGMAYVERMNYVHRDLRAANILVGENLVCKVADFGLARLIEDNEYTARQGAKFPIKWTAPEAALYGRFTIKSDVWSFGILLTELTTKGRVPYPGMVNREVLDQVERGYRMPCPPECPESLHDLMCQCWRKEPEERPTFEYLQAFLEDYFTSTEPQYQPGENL
test_name: Src enzyme inhibitory activity (time-resolved fluorometry, biotinylated peptide phosphorylation)
Assay type: biochemical
experimental_parameters: biotinylated peptide phosphorylation, read-out: SRC_IC50
// NB: equality with 500 nM counts as false; only IC50 strictly below is true

>>> discrete_label("Cc1cc(Oc2ccccc2F)ccc1-n1ncc(C(=O)c2cc3cc(F)c(NS(=O)(=O)N4CCOCC4)cc3[nH]2)c1N")
"true"
>>> discrete_label("Cc1cc2cc(C(=O)c3cnn(-c4ccc(Oc5ccccc5F)cc4C)c3N)[nH]c2cc1N1C(=O)CNC1=O")
"true"

**Query** A record lists Cc1cc(Oc2c(F)cccc2F)ncc1-n1ncc(C(=O)c2cc3cc(F)c(N4CCCS4(=O)=O)cc3[nH]2)c1N . Is its IC50 below 500 nM?
**Result** true

**Query** A record lists Cc1cc(-n2ncc(C(=O)c3cc4cc(C)c(N5C(=O)NC6(CCOCC6)C5=O)cc4[nH]3)c2N)ccc1Oc1ccccc1F . Is its IC50 below 500 nM?
**Result** false

**Query** A record lists Cc1cc2cc(C(=O)c3cnn(-c4ccc(Oc5ccccc5F)cc4C)c3N)[nH]c2cc1NS(C)(=O)=O . Is its IC50 below 500 nM?
**Result** true

**Query** A record lists Cc1cc(Oc2ccccc2F)ccc1-n1ncc(C(=O)c2cc3cc(C4CC4)c(NS(=O)(=O)CCCF)cc3[nH]2)c1N . Is its IC50 below 500 nM?
**Result** true

**Query** A record lists Cc1cc2cc(C(=O)c3cnn(-c4cnc(Oc5ccccc5F)cc4C)c3N)[nH]c2cc1N1CCCS1(=O)=O . Is its IC50 below 500 nM?
**Result** true

**Query** A record lists Cc1cc(Oc2c(F)cccc2F)ncc1-n1ncc(C(=O)c2cc3cc(F)c(NS(=O)(=O)c4cccc(F)n4)cc3[nH]2)c1N . Is its IC50 below 500 nM?
**Result** false

----------
tested_on: human Yes1 enzyme (Homo sapiens)
Construct: made in house
test_name: Yes1 enzyme inhibitory activity (time-resolved fluorometry, biotinylated peptide phosphorylation)
Format: biochemical
experimental_parameters: biotinylated peptide phosphorylation, read-out: YES_IC50
measurement_label: pIC50
Answers are plain numbers, as −log10 of the molar value.

>>> numeric_value("Cc1cc(Oc2ccccc2F)ccc1-n1ncc(C(=O)c2cc3cc(OC(F)F)c(NC4CCN(S(C)(=O)=O)CC4)cc3[nH]2)c1N")
8.14
>>> numeric_value("Cc1cc2cc(C(=O)c3cnn(-c4cnc(Oc5ccccc5F)cc4C)c3N)[nH]c2cc1NS(=O)(=O)c1cncc(Cl)c1")
8.41
>>> numeric_value("Cc1cc(Oc2ccccc2F)ccc1-n1ncc(C(=O)c2cc3cc(F)c(N4C(=O)NC(C)(C(F)(F)F)C4=O)cc3[nH]2)c1N (centres unmarked)")
8.52
>>> numeric_value("Cc1cc(Oc2ccccc2F)cc(F)c1-n1ncc(C(=O)c2cc3cc(OCC(F)F)c(NC4COC4)cc3[nH]2)c1N")
8.74

Here's the next entry for you.
**Query** Entry under review: Cc1cc(Oc2c(F)cccc2F)ncc1-n1ncc(C(=O)c2cc3cc(OC(F)F)c(N4CCCC4=O)cc3[nH]2)c1N . Reported pIC50?
**Result** 8.39

----------
tested_on: human Yes1 enzyme (Homo sapiens, UniProt P07947)
Construct: made in house
Sequence (P07947 whole entry): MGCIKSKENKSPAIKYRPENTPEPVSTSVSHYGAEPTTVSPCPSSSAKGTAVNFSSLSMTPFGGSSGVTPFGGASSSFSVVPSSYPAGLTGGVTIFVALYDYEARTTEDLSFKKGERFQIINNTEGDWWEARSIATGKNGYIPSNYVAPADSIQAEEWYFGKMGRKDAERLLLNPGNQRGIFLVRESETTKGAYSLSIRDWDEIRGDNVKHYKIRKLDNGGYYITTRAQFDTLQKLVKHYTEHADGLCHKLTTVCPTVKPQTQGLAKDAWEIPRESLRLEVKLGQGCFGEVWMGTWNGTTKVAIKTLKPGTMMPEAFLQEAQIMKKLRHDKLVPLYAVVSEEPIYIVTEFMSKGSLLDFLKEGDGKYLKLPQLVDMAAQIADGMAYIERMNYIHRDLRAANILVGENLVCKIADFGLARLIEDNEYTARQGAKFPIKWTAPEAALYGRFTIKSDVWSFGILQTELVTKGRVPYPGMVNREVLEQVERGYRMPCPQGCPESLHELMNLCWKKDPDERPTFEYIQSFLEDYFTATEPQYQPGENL
test_name: Yes1 enzyme inhibitory activity (time-resolved fluorometry, biotinylated peptide phosphorylation)
Format: biochemical
experimental_parameters: biotinylated peptide phosphorylation, read-out: YES_IC50
measurement_label: IC50 (nM)
Give bare numbers, in nM.

Items follow; give IC50 for each.
1. Cc1cc2cc(C(=O)c3cnn(-c4cnc(Oc5ccccc5Cl)cc4C)c3N)[nH]c2cc1N1CCCS1(=O)=O [Example 4-2-117]
2. Cc1cc(Oc2ccccc2F)ncc1-n1ncc(C(=O)c2cc3cc(F)c(NS(=O)(=O)c4cncc(Cl)c4)cc3[nH]2)c1N [Example 5-1-544]
3. Cc1cc(Oc2ccccc2F)ccc1-n1ncc(C(=O)c2cc3cc(N4CCOCC4)c(NS(C)(=O)=O)cc3[nH]2)c1N [Example 4-24-013]
4. Cc1cc(Oc2c(F)cccc2F)ncc1-n1ncc(C(=O)c2cc3cc(F)c(NS(=O)(=O)CCCF)cc3[nH]2)c1N [Example 4-2-021]
5. Cc1cc2cc(C(=O)c3cnn(-c4cnc(Oc5c(F)cccc5F)cc4C)c3N)[nH]c2cc1NS(=O)(=O)N1CCOCC1 [Example 4-2-109]
6. Cc1cc(Oc2ccccc2F)ccc1-n1ncc(C(=O)c2cc3cc(F)c(NS(=O)(=O)CC(=O)N4CCN(C(C)C)CC4)cc3[nH]2)c1N [Example 4-10-003, 2,2,2-trifluoroacetate]

**Result**
0.6
8.4
1.6
1.5
1.9
0.75

**Query** Entry under review: Cc1cc(Oc2cccc(F)c2F)ccc1-n1ncc(C(=O)c2cc3cc(F)c(NS(=O)(=O)CCCF)cc3[nH]2)c1N [Example 4-2-016] . Reported IC50?
**Result** 2.1

----------
I'd be grateful if you could share measured IC50 for these entries.
tested_on: human Src enzyme (Homo sapiens)
Construct: purchased Carna Biosciences, Inc. 08-173
test_name: Src enzyme inhibitory activity (time-resolved fluorometry, biotinylated peptide phosphorylation)
Type: biochemical
experimental_parameters: biotinylated peptide phosphorylation, read-out: SRC_IC50
Numbers only, in nM.

>>> numeric_value("Cc1cc2cc(C(=O)c3cnn(-c4c(C)cc(Oc5ccccc5F)cc4F)c3N)[nH]c2cc1NS(C)(=O)=O")
65
>>> numeric_value("Cc1cc(Oc2ccccc2Cl)ncc1-n1ncc(C(=O)c2cc3cc(F)c(NS(=O)(=O)CCCF)cc3[nH]2)c1N")
84
>>> numeric_value("Cc1cc(Oc2cccc(F)c2F)ccc1-n1ncc(C(=O)c2cc3cc(F)c(NS(=O)(=O)C4CC4)cc3[nH]2)c1N")
84

Items follow; give IC50 for each.
1. Cc1cc2cc(C(=O)c3cnn(-c4c(C)cc(Oc5cccc(F)c5F)cc4F)c3N)[nH]c2cc1NS(C)(=O)=O
2. Cc1cc2cc(C(=O)c3cnn(-c4ccc(Oc5cccc(F)c5F)cc4C)c3N)[nH]c2cc1NS(=O)(=O)CCCF

**Result**
[97, 67]

----------
tested_on: human Lck enzyme (Homo sapiens, UniProt P06239)
Construct: purchased Carna Biosciences, Inc. 08-170
Sequence (P06239 whole entry): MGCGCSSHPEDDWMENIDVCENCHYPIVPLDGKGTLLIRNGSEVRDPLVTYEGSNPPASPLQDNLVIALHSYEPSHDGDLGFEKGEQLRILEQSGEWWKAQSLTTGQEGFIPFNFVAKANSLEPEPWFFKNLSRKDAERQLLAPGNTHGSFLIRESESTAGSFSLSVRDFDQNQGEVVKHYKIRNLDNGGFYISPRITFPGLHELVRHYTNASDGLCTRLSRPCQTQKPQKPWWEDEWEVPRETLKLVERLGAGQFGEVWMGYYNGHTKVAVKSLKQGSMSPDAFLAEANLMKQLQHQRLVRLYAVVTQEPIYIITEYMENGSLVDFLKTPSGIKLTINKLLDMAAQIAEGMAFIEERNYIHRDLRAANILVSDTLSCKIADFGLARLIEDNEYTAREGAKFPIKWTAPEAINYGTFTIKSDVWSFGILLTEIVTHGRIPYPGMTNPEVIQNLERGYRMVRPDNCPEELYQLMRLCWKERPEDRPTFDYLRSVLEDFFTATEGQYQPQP
test_name: Lck enzyme inhibitory activity (time-resolved fluorometry, biotinylated peptide phosphorylation)
Type: biochemical
experimental_parameters: biotinylated peptide phosphorylation, read-out: LCK_IC50
measurement_label: pIC50
Answers are plain numbers, as −log10 of the molar value.

Items follow; give pIC50 for each.
1. Cc1cc2cc(C(=O)c3cnn(-c4c(C)cc(Oc5ccccc5F)cc4F)c3N)[nH]c2cc1NS(=O)(=O)N1CCOCC1
2. Cc1cc2cc(C(=O)c3cnn(-c4c(C)cc(Oc5ccccc5Cl)cc4F)c3N)[nH]c2cc1NS(C)(=O)=O
3. Cc1cc(Oc2c(F)cccc2F)ncc1-n1ncc(C(=O)c2cc3cc(F)c(NS(=O)(=O)c4cccnc4)cc3[nH]2)c1N

**Result**
7.05
7.16
7.00

Items follow; give pIC50 for each.
1. Cc1cc(Oc2ccccc2F)ncc1-n1ncc(C(=O)c2cc3cc(N4CCOCC4)c(NS(=O)(=O)CCCF)cc3[nH]2)c1N
2. Cc1cc(Oc2ccccc2F)ccc1-n1ncc(C(=O)c2cc3cc(F)c(NS(=O)(=O)NC(C)C)cc3[nH]2)c1N
3. Cc1cc(Oc2c(F)cccc2F)ncc1-n1ncc(C(=O)c2cc3cc(OCC(F)F)c(N4CCOCC4)cc3[nH]2)c1N
4. Cc1cc(Oc2ccccc2F)ncc1-n1ncc(C(=O)c2cc3cc(OC(F)F)c(N4CCCC4=O)cc3[nH]2)c1N
5. Cc1cnc(F)c(S(=O)(=O)Nc2cc3[nH]c(C(=O)c4cnn(-c5cnc(Oc6c(F)cccc6F)cc5C)c4N)cc3cc2F)c1

**Result**
7.49
7.39
8.12
8.66
6.70

----------
I'd be grateful if you could share measured IC50 for these entries.
tested_on: human Yes1 enzyme (Homo sapiens)
Construct: made in house
test_name: Yes1 enzyme inhibitory activity (time-resolved fluorometry, biotinylated peptide phosphorylation)
Type: biochemical
experimental_parameters: biotinylated peptide phosphorylation, read-out: YES_IC50
Numbers only, in nM.

>>> numeric_value("Cc1cc(Oc2ccccc2F)cc(F)c1-n1ncc(C(=O)c2cc3cc(OC(F)F)c(NC4CN(S(C)(=O)=O)C4)cc3[nH]2)c1N [Example 4-23-024]")
7.2
>>> numeric_value("Cc1cc(-n2ncc(C(=O)c3cc4cc(C)c(N5C(=O)NC6(CCC6)C5=O)cc4[nH]3)c2N)ccc1Oc1ccccc1F [Example 5-1-468]")
11
>>> numeric_value("Cc1cc(Oc2ccccc2F)ccc1-n1ncc(C(=O)c2cc3cc(OCC(F)F)c(N4C(=O)NC(C)(C)C4=O)cc3[nH]2)c1N [Example 4-23-033]")
0.5
>>> numeric_value("Cc1cc(Oc2ccccc2F)ccc1-n1ncc(C(=O)c2cc3cc(OCCN4C[C@@H]5C[C@H]4CN5S(C)(=O)=O)c(NS(C)(=O)=O)cc3[nH]2)c1N [Example 4-24-038]")
0.55
>>> numeric_value("Cc1cc(Oc2ccccc2F)cc(F)c1-n1ncc(C(=O)c2cc3cc(OC(F)F)c(N4CCCC4=O)cc3[nH]2)c1N [Example 4-25-015]")
4.9
>>> numeric_value("Cc1cc2cc(C(=O)c3cnn(-c4c(C)cc(Oc5cccc(F)c5F)cc4F)c3N)[nH]c2cc1NS(C)(=O)=O [Example 4-2-056]")
3.9

Items follow; give IC50 for each.
1. Cc1cc(Oc2ccccc2F)ncc1-n1ncc(C(=O)c2cc3cc(OCC(F)F)c(NS(=O)(=O)N4CCOCC4)cc3[nH]2)c1N [Example 4-22-006]
2. Cc1cc(Oc2ccccc2F)ccc1-n1ncc(C(=O)c2cc3cc(OC(F)F)c(C4CCN(C(=O)CN)CC4)cc3[nH]2)c1N [Example 4-18-002]
3. Cc1cc(Oc2ccccn2)ccc1-n1ncc(C(=O)c2cc3cc(F)c(NS(=O)(=O)CCCF)cc3[nH]2)c1N [Example 4-2-017]
4. Cc1cc2cc(C(=O)c3cnn(-c4c(C)cc(Oc5cccc(Cl)c5)cc4F)c3N)[nH]c2cc1NS(C)(=O)=O [Example 4-2-059]
5. Cc1cc(Oc2cccc(F)c2F)ncc1-n1ncc(C(=O)c2cc3cc(F)c(NS(=O)(=O)CCCF)cc3[nH]2)c1N [Example 4-2-022]

**Result**
1: 1.9; 2: 5.9; 3: 0.55; 4: 7.7; 5: 5.4

From: patent US10479780B2
